Here, each record is paired with measured IC50 data.
Target: MCL-1 (Homo sapiens, UniProt Q07820)
Sequence (Q07820 whole entry): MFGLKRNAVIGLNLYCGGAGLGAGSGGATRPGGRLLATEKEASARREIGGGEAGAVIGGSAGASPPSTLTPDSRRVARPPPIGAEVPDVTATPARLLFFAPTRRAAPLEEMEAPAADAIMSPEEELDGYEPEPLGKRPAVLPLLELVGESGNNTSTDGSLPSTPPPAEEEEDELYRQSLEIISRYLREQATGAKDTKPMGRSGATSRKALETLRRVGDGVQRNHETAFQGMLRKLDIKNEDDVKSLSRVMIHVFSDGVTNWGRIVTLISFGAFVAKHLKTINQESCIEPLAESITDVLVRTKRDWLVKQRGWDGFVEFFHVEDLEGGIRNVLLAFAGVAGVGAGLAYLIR
Experiment: Protein-protein interaction assay MCL-1/Noxa BH3 peptide (MCL-1 assay), TR-FRET
Format: binding
Conditions: MBP-MCL-1 / Noxa BH3-derived peptide, median
Supply the numeric figure in nM, leaving out any unit text.

Worked cases, answers included:
| COMPOUND | MEASURED_TARGET | IC50 (nM) |
| --- | --- | --- |
| CCN(CC)S(=O)(=O)N1CCN(c2ccc(OCc3nn(C)c4c3-c3cccc5c(CCCOc6cccc7ccccc67)c(C(=O)O)n(c35)CCCCOC4)cc2)CC1 (single isomer, unassigned; enantiomer 2) [Example 1-5] | MCL-1 (Homo sapiens, UniProt Q07820) | 1.51 |
| Cc1ccc2c(CCCOc3cccc4cc(F)ccc34)c(C(=O)O)n3c2c1-c1c(nn(CCN2CCOCC2)c1C)COCCCC3 (single isomer, unassigned) [Example 294] | MCL-1 (Homo sapiens, UniProt Q07820) | 5.79 |
| CN1CCCCn2c(C(=O)O)c(CCCOc3cccc4ccccc34)c3cccc(c32)-c2c(CC(F)(F)F)nn(C)c2C1 (racemic) [Example 222] | MCL-1 (Homo sapiens, UniProt Q07820) | 5.97 |
| CCN(CC)S(=O)(=O)N1CCN(c2ccc(OCc3nn(C)c4c3-c3cccc5c(CCCOc6cccc7ccccc67)c(C(=O)O)n(c35)CCCCOC4)cc2)CC1 (racemic) [Example 1-3] | MCL-1 (Homo sapiens, UniProt Q07820) | 3.78 |
| Cn1nc(CN2CC(F)(F)C2)c2c1COCCCCn1c(C(=O)O)c(CCCOc3cccc4ccccc34)c3cccc-2c31 (single isomer, unassigned; enantiomer 1) [Example 181] | MCL-1 (Homo sapiens, UniProt Q07820) | 7.77 |

Problem: Using the record for CN(C)S(=O)(=O)N1CCN(c2ccc(OCc3nn(C)c4c3-c3cccc5c(CCCOc6cccc7ccccc67)c(C(=O)O)n(c35)CCCCOC4)cc2)CC1 (single isomer, unassigned; enantiomer 1) [Example 1-19] , report its IC50.
Result: 52.7

Problem: Using the record for CCOCc1nn(C)c2c1-c1cccc3c(CCCOc4cccc5c4CCCC5)c(C(=O)O)n(c13)CCCCOC2 (single isomer, unassigned; enantiomer 1) [Example 171] , report its IC50.
Result: 2.68

Problem: Using the record for COCCn1nc2c(c1C)-c1cccc3c(CCCOc4cccc5ccccc45)c(C(=O)O)n(c13)CCCN(C)C2 (racemic) , report its IC50.
Result: 28

Problem: Using the record for COCC(=O)N1CCN(c2ccc(OCc3nn(C)c4c3-c3cccc5c(CCCOc6cccc7ccccc67)c(C(=O)O)n(c35)CCCCOC4)cc2)CC1 (racemic) [Example 1-27] , report its IC50.
Result: 2.08

Problem: Using the record for CN1CCCCn2c(C(=O)O)c(CCCOc3cccc4ccccc34)c3cccc(c32)-c2cnn(C)c2C1 (racemic) , report its IC50.
Result: 14.4

Problem: Using the record for Cn1nc(CN2CCOCC2)c2c1COCCCCn1c(C(=O)O)c(CCCOc3cccc4ccccc34)c3cccc-2c31 (single isomer, unassigned; enantiomer 1) [Example 136] , report its IC50.
Result: 22.8

Problem: Using the record for CC(C)OCc1nn(C)c2c1-c1cccc3c(CCCOc4cccc5c4CCCC5)c(C(=O)O)n(c13)CCCCOC2 (racemic) , report its IC50.
Result: 11.8

Problem: Using the record for CCc1c2c(nn1C)CN(C)CCCn1c(C(=O)O)c(CCCOc3cccc4ccccc34)c3ccc(C)c-2c31 (racemic) [Example 144] , report its IC50.
Result: 3.34

Problem: Using the record for CN(C)S(=O)(=O)N1CCN(c2ccc(OCc3nn(C)c4c3-c3cccc5c(CCCOc6cccc7ccccc67)c(C(=O)O)n(c35)CCCCCC4)cc2)CC1 (single isomer, unassigned; enantiomer 1) [Example 1-40] , report its IC50.
Result: 36.8

Problem: Using the record for COCc1nn(C)c2c1-c1cccc3c(CCCOc4cccc5ccccc45)c(C(=O)O)n(c13)CCCCCOC2 (single isomer, unassigned; enantiomer 2) [Example 179] , report its IC50.
Result: 9.43

Problem: Using the record for Cn1nc(COc2ccc(N3CCN(S(C)(=O)=O)CC3)cc2)c2c1COCCCCn1c(C(=O)O)c(CCCOc3cccc4ccccc34)c3cccc-2c31 (single isomer, unassigned; enantiomer 1) [Example 1-9] , report its IC50.
Result: 24.2

FYI, the data here is from patent US10981932B2.
